molecular target: T1, HLA-A*02:01 on T2 cells alone (no peptide added) (human); experiment: flow cytometry, phage on T2 without peptide; secondary only 320, unstained 91.4
T1 construct: TAP-deficient T2 cells without pulsed peptide; negative control target, and the HLA molecule whose stabilisation by peptides is read in the T2 stabilization assay; also called HLA-A*02 molecule; HLA-A2 molecule
measured.property: Median:FITC-A

| binder | measured.property | endpoint.result |
| --- | --- | --- |
| EXT017-53 scFv phage clone (scFv, full-length scFv with His+HA tags; also called EXT017-53 phage) scFv: NFMLTQPHSVSESPGKTVTISCTRSSGSIASHYVQWYQQRPGSSPTTVIYENNQRPSGVPDRFSGSIDSSSNSASLTISGLKTEDEADYYCQSYDRSNHVVFGGGTKLTVLGSRGGGGSGGGGSGGGGSLEMAQVQLVQSGAEVKKPGASVKVSCKASGYTFTNYYIHWVRQAPGEGLEWMGIIRPSGGNTNYAQKFQGRVTMTRDTSTRTVYMELSSLRSEDTAVYYCARSWNSRDVDSWGQGTLVTVSSTSGQAGQHHHHHHGAYPYDVPDYAS | Median:FITC-A | 355 |
| EXT017-28 scFv phage clone (scFv, full-length scFv with His+HA tags; also called EXT017-28 phage; phage clone #28) scFv: QSVLTQPPSVSGAPGQRVTISCTGSSSNIGAGYDVHWYQQLPGTAPKLLIYGNSDRPSGVPDRFSGSKSGTSASLAITGLQAEDEADYYCQSYDSSLSGYVFGTGTKVTVLGSRGGGGSGGGGSGGGGSLEMAQMQLVQSGAEVKKPGSSVKVSCKASGGTFSTYAISWVRQAPGQGLEWMGGIIPIFGTANYAQKFQGRVTITADKSTSTAYMEVRNLRSEDTAVYYCARAEYVYGEYDQWGQGTLVTVSSTSGQAGQHHHHHHGAYPYDVPDYAS | Median:FITC-A | 353 |
